MIC listing for selected compounds.
System: Escherichia coli
protocol text: Antimicrobial activity against Escherichia coli DH5alpha by agar dilution method in presence of beta-lactamase inhibitor clavulanic acid
Type: functional
test parameters: DH5[alpha]
Answer with the value and then the unit.

Some compounds with recorded MIC:
[
  {
    "compound": "C[C@@H](O)[C@H]1C(=O)N2C(C(=O)O)=C([C@H]3CCCO3)S[C@H]12 [FAROPENEM]",
    "tgt": "Escherichia coli",
    "endpoint result": "0.25 µg/mL"
  },
  {
    "compound": "C[C@@H](O)[C@H]1C(=O)N2C(C(=O)O)=C(S[C@@H]3CN[C@H](C(=O)N(C)C)C3)[C@H](C)[C@H]12 [MEROPENEM]",
    "tgt": "Escherichia coli",
    "endpoint result": "0.03 µg/mL"
  },
  {
    "compound": "CO/N=C(\\C(=O)N[C@@H]1C(=O)N2C(C(=O)O)=C(COC(C)=O)CS[C@H]12)c1csc(N)n1 [CEFOTAXIME]",
    "tgt": "Escherichia coli",
    "endpoint result": "0.016 µg/mL"
  },
  {
    "compound": "CC(C)(O/N=C(\\C(=O)N[C@@H]1C(=O)N2C(C(=O)[O-])=C(C[n+]3ccccc3)CS[C@H]12)c1csc(N)n1)C(=O)O [CEFTAZIDIME]",
    "tgt": "Escherichia coli",
    "endpoint result": "0.06 µg/mL"
  }
]

Shift focus to the following entry.
Give its MIC value. Item: CC1(C)S[C@@H]2[C@H](NC(=O)[C@H](N)c3ccc(O)cc3)C(=O)N2[C@H]1C(=O)O [AMOXICILLIN]
2 µg/mL
